Target: GGA3 1-153 VHS (domain begin residue: 1, domain end residue: 153)
Assay: phage ELISA signal ratio (GST-PRM binding over GST background); higher = stronger binding of peptide-phage to the PRM
measured-attribute: phage ELISA signal ratio

Req: For QAWDWGIYIDDWAQPL , what is its reported phage ELISA signal ratio?
Resp: 10.6

Req: Another binder to look at: MDWTILDFPYQNWPRS
Resp: 13.9

Req: Another binder to look at: WHGQEADDVQMLWHWS
Resp: 5.39

Req: Another binder to look at: EVWWQGPEEDWMQTYL
Resp: 11.9

Req: Another binder to look at: VDEWSVMKYPVEQKWV
Resp: 21.6

Req: Another binder to look at: SDVPPWWYHEPITGPM
Resp: 17.8

Req: Another binder to look at: PDTELIDVHQWRTSQW
Resp: 22.1

Req: Another binder to look at: EMDVEMWFPHFMNHSF
Resp: 34.5

Req: Another binder to look at: HLDQPPWWTLQEWASH
Resp: 12.2

Req: Another binder to look at: MEPFTTWDQLPWWMQE
Resp: 12.9
